The measured values listed here are drawn from the supplement of paper PMC10567573.

B1: ZBTB22 (parent)
chain: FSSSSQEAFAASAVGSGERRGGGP

Variants of: B1
ASSAY_COMMENT: protein stability index of a GFP-peptide fusion (GPS, HEK-293T) (PSI 1-6); higher = more stable;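 also: lentivirally expressed fusions sorted by FACS into six bins by GFP to DsRed ratio, PSI derived from sequencing read proportions per bin multiplied by bin number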
EXPERIMENTAL_PARAMETERS: c terminus: a fixed tail appended
Assign class by protein stability index: not lower than 3 means fulfilled; lower than 3 means not fulfilled.

Some solved entries appear below for comparison.
1. S3N | fulfilled
2. G21A | fulfilled
3. F1R | fulfilled
4. G22D | fulfilled
5. S2N | fulfilled
6. R20A | fulfilled
7. F9C | fulfilled
8. S16M | fulfilled
9. S5L | fulfilled
10. A13Q | fulfilled

Q: Say whether `R19Q` shows protein stability index of 3 or more.
Result: fulfilled

Q: Query `A10C` next
Result: not fulfilled

Q: Query `S2Q` next
Result: not fulfilled

Q: Query `A10W` next
Result: not fulfilled
